Can you tell me VEGFR-1 kinase % inhibition @ 1 uM for the items I'm about to list?
- test-system: recombinant human baculovirus-expressed VEGFR1 cytoplasmic domain (Homo sapiens, UniProt P17948)
- Construct: recombinant human baculovirus-expressed VEGFR1 cytoplasmic domain; host or cells: baculovirus expression system
- Sequence (P17948 781-1338 limits assumed): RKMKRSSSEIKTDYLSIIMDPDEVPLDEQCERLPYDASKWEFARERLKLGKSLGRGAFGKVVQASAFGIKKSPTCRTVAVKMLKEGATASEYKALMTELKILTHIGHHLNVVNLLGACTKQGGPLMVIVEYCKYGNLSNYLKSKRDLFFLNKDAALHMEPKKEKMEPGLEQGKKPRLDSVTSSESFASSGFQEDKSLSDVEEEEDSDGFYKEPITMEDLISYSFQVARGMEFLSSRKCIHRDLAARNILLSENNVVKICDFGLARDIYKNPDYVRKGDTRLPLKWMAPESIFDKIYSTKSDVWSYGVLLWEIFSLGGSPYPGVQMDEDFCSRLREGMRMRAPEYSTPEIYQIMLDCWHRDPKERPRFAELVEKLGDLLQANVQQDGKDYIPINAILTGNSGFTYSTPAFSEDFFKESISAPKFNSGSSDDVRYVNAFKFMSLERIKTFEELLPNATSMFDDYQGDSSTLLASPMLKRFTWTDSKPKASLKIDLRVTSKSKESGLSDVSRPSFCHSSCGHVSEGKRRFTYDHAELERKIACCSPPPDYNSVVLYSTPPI
- protocol-text: VEGFR1 kinase inhibition assay (ELISA-based, time-resolved fluorescence)
- Format: biochemical
- study-conditions: 1 uM compound; 30 μM ATP
Write down the numeric answer in % and omit the unit.

Looking up O=C1NN=C(c2ccoc2)C1=Cc1c[nH]c2cccc(OCc3ccccc3)c12 , I found its VEGFR-1 kinase % inhibition @ 1 uM recorded as 9

Looking up O=C1NN=C(c2ccoc2)C1=Cc1cn(Cc2ccccc2)c2ccccc12 , I found its VEGFR-1 kinase % inhibition @ 1 uM recorded as 11

Looking up Cc1ccc2c(C=C3C(=O)NN=C3c3ccn(C)c3)c[nH]c2c1 , I found its VEGFR-1 kinase % inhibition @ 1 uM recorded as 36

Looking up Cc1cc(C)c(C=C2C(=O)NN=C2c2cc(C)oc2C)[nH]1 , I found its VEGFR-1 kinase % inhibition @ 1 uM recorded as 14

Looking up O=C1NN=C(c2ccco2)C1=Cc1c[nH]c2ccc(Cl)cc12 , I found its VEGFR-1 kinase % inhibition @ 1 uM recorded as 32

Looking up Cc1ccc2c(C=C3C(=O)NN=C3c3ccco3)c[nH]c2c1 , I found its VEGFR-1 kinase % inhibition @ 1 uM recorded as 41

Looking up Cc1cc(C)c(C=C2C(=O)NN=C2c2ccncc2)[nH]1 , I found its VEGFR-1 kinase % inhibition @ 1 uM recorded as 22

Looking up O=C1NN=C(c2nccs2)C1=Cc1cn(CCOCc2ccccc2)c2ccccc12 , I found its VEGFR-1 kinase % inhibition @ 1 uM recorded as 12

Looking up O=C1NN=C(c2ccoc2)C1=Cc1c[nH]c2ccc(Cl)cc12 , I found its VEGFR-1 kinase % inhibition @ 1 uM recorded as 17

---

Can you tell me trkA % inhibition @ 1 uM for the items I'm about to list?
- test-system: baculovirus-expressed human trkA cytoplasmic domain (Homo sapiens, UniProt P04629)
- Construct: baculovirus-expressed human trkA cytoplasmic domain; host or cells: baculovirus expression system
- Sequence (P04629 440-796 limits assumed): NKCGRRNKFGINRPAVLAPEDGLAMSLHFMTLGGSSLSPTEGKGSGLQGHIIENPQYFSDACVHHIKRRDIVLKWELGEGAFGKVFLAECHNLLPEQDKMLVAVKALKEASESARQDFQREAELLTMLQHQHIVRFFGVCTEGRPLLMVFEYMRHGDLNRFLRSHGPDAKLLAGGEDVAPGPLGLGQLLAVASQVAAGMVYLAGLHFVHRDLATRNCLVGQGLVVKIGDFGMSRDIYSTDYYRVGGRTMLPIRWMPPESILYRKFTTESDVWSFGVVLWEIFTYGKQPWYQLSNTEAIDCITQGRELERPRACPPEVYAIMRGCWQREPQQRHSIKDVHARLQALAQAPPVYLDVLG
- protocol-text: trkA tyrosine kinase inhibition assay (ELISA-based)
- Format: biochemical
- study-conditions: 1 uM compound; 40 μM ATP
- Experimental: Inhibition of trkA Tyrosine Kinase Activity Selected heterocyclic substituted pyrazolones were tested for their ability to inhibit the kinase activity of baculovirus-expressed human trkA cytoplasmic domain using an ELISA-based assay as previously described (Angeles et al., Anal. Biochem. 236: 49-55, 1996). […] The activity of the bound enzyme was measured via an amplified detection system (Gibco-BRL). […]
Write down the numeric answer in % and omit the unit.

Looking up O=C1NN=C(c2ccoc2)C1=Cc1ncc[nH]1 [Compound 15] , I found its trkA % inhibition @ 1 uM recorded as 15

Looking up Cc1cc(C)c(C=C2C(=O)NN=C2c2cc(-c3ccc(Cl)cc3)oc2C)[nH]1 [Compound 41] , I found its trkA % inhibition @ 1 uM recorded as 17

Looking up N#CCCn1cc(C=C2C(=O)NN=C2c2ccoc2)c2ccccc21 [Compound 65] , I found its trkA % inhibition @ 1 uM recorded as 22

Looking up Cn1cccc1C1=NNC(=O)C1=Cc1c[nH]c2ccc(F)cc12 [Compound 56] , I found its trkA % inhibition @ 1 uM recorded as 48

Looking up O=C1NN=C(c2ccoc2)C1=Cc1c[nH]c2ccc(F)cc12 [Compound 19] , I found its trkA % inhibition @ 1 uM recorded as 45

Looking up O=C1NN=C(c2ccco2)C1=Cc1ncc[nH]1 [Compound 54] , I found its trkA % inhibition @ 1 uM recorded as 20

Looking up COc1ccc2[nH]cc(C=C3C(=O)NN=C3c3ccco3)c2c1 [Compound 51] , I found its trkA % inhibition @ 1 uM recorded as 56

Looking up Cn1cc(C=C2C(=O)NN=C2c2nccs2)c2ccccc21 [Compound 60] , I found its trkA % inhibition @ 1 uM recorded as 71

Looking up O=C1NN=C(c2ccoc2)C1=Cc1c[nH]c2ccccc12 [Compound 9] , I found its trkA % inhibition @ 1 uM recorded as 41

---

- test-system: baculoviral GST-MLK2KDLZ (Homo sapiens, UniProt Q02779)
- Construct: 3 μg/ml of baculoviral GST-MLK2KDLZ; GST (N); host or cells: baculovirus expression system
- Sequence (Q02779 98-440 limits assumed): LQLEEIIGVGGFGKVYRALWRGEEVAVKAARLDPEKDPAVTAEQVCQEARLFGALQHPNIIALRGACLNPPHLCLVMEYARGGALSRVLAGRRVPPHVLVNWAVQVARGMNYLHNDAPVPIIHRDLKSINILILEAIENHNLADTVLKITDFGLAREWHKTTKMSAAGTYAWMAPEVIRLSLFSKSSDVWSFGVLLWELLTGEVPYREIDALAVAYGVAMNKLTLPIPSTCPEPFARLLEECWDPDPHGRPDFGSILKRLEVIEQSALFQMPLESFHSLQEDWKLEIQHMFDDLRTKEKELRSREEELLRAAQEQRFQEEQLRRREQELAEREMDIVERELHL
- protocol-text: Mixed Lineage Kinase-2 inhibition assay (Millipore Multiscreen plate, 32P)
- Type: biochemical
- study-conditions: 1 uM compound; 100 μM ATP
measurement-label: MLK-2 Kinase % inhibition @ 1 uM
// unit must come after the numeric part

Looking up Cn1ccc(C2=NNC(=O)C2=Cc2c[nH]c3ccc(Cl)cc23)c1 , I found its MLK-2 Kinase % inhibition @ 1 uM recorded as −15%

Looking up COC(=O)c1ccc2c(C=C3C(=O)NN=C3c3ccco3)c[nH]c2c1 , I found its MLK-2 Kinase % inhibition @ 1 uM recorded as −1%

Looking up Cc1cc(C)c(C=C2C(=O)NN=C2c2csc3ccccc23)[nH]1 , I found its MLK-2 Kinase % inhibition @ 1 uM recorded as −7%

Looking up O=C1NN=C(c2ccco2)C1=Cc1c[nH]c2ccc(OCc3ccccc3)cc12 , I found its MLK-2 Kinase % inhibition @ 1 uM recorded as 2%

Looking up Cc1cc(C)c(C=C2C(=O)NN=C2C2c3ccccc3Oc3ccccc32)[nH]1 , I found its MLK-2 Kinase % inhibition @ 1 uM recorded as −10%

---

- test-system: baculovirus-expressed human trkA cytoplasmic domain (Homo sapiens, UniProt P04629)
- Construct: baculovirus-expressed human trkA cytoplasmic domain; host or cells: baculovirus expression system
- protocol-text: trkA tyrosine kinase inhibition assay (ELISA-based)
- Type: biochemical
- study-conditions: 1 uM compound; 40 μM ATP
Can you tell me trkA % inhibition @ 1 uM for the items I'm about to list?
Write down the numeric answer in % and omit the unit.

Looking up O=C1NN=C(c2cccs2)C1=Cc1c[nH]c2ccccc12 , I found its trkA % inhibition @ 1 uM recorded as 45

Looking up Cc1cc(C)c(C=C2C(=O)NN=C2c2c(C)coc2C)[nH]1 , I found its trkA % inhibition @ 1 uM recorded as 49

Looking up O=C1NN=C(c2ccco2)C1=Cc1c[nH]c2ccc(Cl)cc12 , I found its trkA % inhibition @ 1 uM recorded as 56

Looking up Cc1cc(C)c(C=C2C(=O)NN=C2C2c3ccccc3Oc3ccccc32)[nH]1 , I found its trkA % inhibition @ 1 uM recorded as 39

Looking up Cn1ccc(C2=NNC(=O)C2=Cc2c[nH]c3ccc(Cl)cc23)c1 , I found its trkA % inhibition @ 1 uM recorded as 23

Looking up Cc1ccc2c(C=C3C(=O)NN=C3c3ccco3)c[nH]c2c1 , I found its trkA % inhibition @ 1 uM recorded as 29

Looking up Cc1cc(C)c(C=C2C(=O)NN=C2c2cccn2C)[nH]1 , I found its trkA % inhibition @ 1 uM recorded as 47

Looking up Cc1nc(C)c(C2=NNC(=O)C2=Cc2c[nH]c3ccccc23)s1 , I found its trkA % inhibition @ 1 uM recorded as 45

Looking up N#CCCn1cc(C=C2C(=O)NN=C2c2ccco2)c2ccccc21 , I found its trkA % inhibition @ 1 uM recorded as 40

---

Can you tell me trkA % inhibition @ 1 uM for the items I'm about to list?
- test-system: baculovirus-expressed human trkA cytoplasmic domain (Homo sapiens, UniProt P04629)
- Construct: baculovirus-expressed human trkA cytoplasmic domain; host or cells: baculovirus expression system
- protocol-text: trkA tyrosine kinase inhibition assay (ELISA-based)
- Format: biochemical
- study-conditions: 1 uM compound; 40 μM ATP
Write down the numeric answer in % and omit the unit.

baculovirus-expressed human trkA cytoplasmic domain (Homo sapiens, UniProt P04629) assay, compound CC(C)Cn1cc(C=C2C(=O)NN=C2c2nccs2)c2ccccc21 , recorded trkA % inhibition @ 1 uM = 8

baculovirus-expressed human trkA cytoplasmic domain (Homo sapiens, UniProt P04629) assay, compound Cn1cc(C=C2C(=O)NN=C2c2cccs2)c2ccccc21 , recorded trkA % inhibition @ 1 uM = 60

baculovirus-expressed human trkA cytoplasmic domain (Homo sapiens, UniProt P04629) assay, compound Cc1cc(C)c(C=C2C(=O)NN=C2c2sc(C)nc2C)[nH]1 , recorded trkA % inhibition @ 1 uM = 35

baculovirus-expressed human trkA cytoplasmic domain (Homo sapiens, UniProt P04629) assay, compound O=C1NN=C(c2cccs2)C1=Cc1cn(Cc2ccccc2)c2ccccc12 , recorded trkA % inhibition @ 1 uM = 23

baculovirus-expressed human trkA cytoplasmic domain (Homo sapiens, UniProt P04629) assay, compound N#CCCn1cc(C=C2C(=O)NN=C2c2cccs2)c2ccccc21 , recorded trkA % inhibition @ 1 uM = 32

baculovirus-expressed human trkA cytoplasmic domain (Homo sapiens, UniProt P04629) assay, compound O=C1NN=C(c2nccs2)C1=Cc1cn(CCOCc2ccccc2)c2ccccc12 , recorded trkA % inhibition @ 1 uM = 38

baculovirus-expressed human trkA cytoplasmic domain (Homo sapiens, UniProt P04629) assay, compound CN(C)c1ccc(C=C2C(=O)NN=C2c2ccco2)cc1 , recorded trkA % inhibition @ 1 uM = 10

baculovirus-expressed human trkA cytoplasmic domain (Homo sapiens, UniProt P04629) assay, compound Cn1cc(C=C2C(=O)NN=C2c2ccco2)c2ccccc21 , recorded trkA % inhibition @ 1 uM = 39

baculovirus-expressed human trkA cytoplasmic domain (Homo sapiens, UniProt P04629) assay, compound Cc1cc(C)c(C=C2C(=O)NN=C2c2ccoc2)[nH]1 , recorded trkA % inhibition @ 1 uM = 24

baculovirus-expressed human trkA cytoplasmic domain (Homo sapiens, UniProt P04629) assay, compound Cc1nc[nH]c1C=C1C(=O)NN=C1c1ccco1 , recorded trkA % inhibition @ 1 uM = 20

baculovirus-expressed human trkA cytoplasmic domain (Homo sapiens, UniProt P04629) assay, compound COC(=O)c1ccc2c(C=C3C(=O)NN=C3c3ccco3)c[nH]c2c1 , recorded trkA % inhibition @ 1 uM = 28

baculovirus-expressed human trkA cytoplasmic domain (Homo sapiens, UniProt P04629) assay, compound O=C1NN=C(c2ccco2)C1=Cc1c[nH]c2ccc(F)cc12 , recorded trkA % inhibition @ 1 uM = 47

baculovirus-expressed human trkA cytoplasmic domain (Homo sapiens, UniProt P04629) assay, compound COC(=O)c1ccc2[nH]cc(C=C3C(=O)NN=C3c3ccoc3)c2c1 , recorded trkA % inhibition @ 1 uM = 29

baculovirus-expressed human trkA cytoplasmic domain (Homo sapiens, UniProt P04629) assay, compound O=C1NN=C(c2ccoc2)C1=Cc1c[nH]c2cccc(OCc3ccccc3)c12 , recorded trkA % inhibition @ 1 uM = 70

baculovirus-expressed human trkA cytoplasmic domain (Homo sapiens, UniProt P04629) assay, compound Cc1cccc2c(C=C3C(=O)NN=C3c3ccoc3)c[nH]c12 , recorded trkA % inhibition @ 1 uM = 44

baculovirus-expressed human trkA cytoplasmic domain (Homo sapiens, UniProt P04629) assay, compound O=C1NN=C(c2ccco2)C1=Cc1cn(CCOCc2ccccc2)c2ccccc12 , recorded trkA % inhibition @ 1 uM = 15

baculovirus-expressed human trkA cytoplasmic domain (Homo sapiens, UniProt P04629) assay, compound Cc1oc(-c2ccc(Cl)cc2)cc1C1=NNC(=O)C1=Cc1c[nH]c2ccccc12 , recorded trkA % inhibition @ 1 uM = 29

baculovirus-expressed human trkA cytoplasmic domain (Homo sapiens, UniProt P04629) assay, compound Cn1cc(C=C2C(=O)NN=C2c2cc3ccccc3o2)c2ccccc21 , recorded trkA % inhibition @ 1 uM = 40

baculovirus-expressed human trkA cytoplasmic domain (Homo sapiens, UniProt P04629) assay, compound CCc1c(C=C2C(=O)NN=C2c2ccoc2)[nH]c(C(=O)OCc2ccccc2)c1C , recorded trkA % inhibition @ 1 uM = 2
